experiment: NOVARTIS: Cytotoxicity against human hepatocellular carcinoma cell line (Huh7); assay type: toxicity, cell-based, Huh-7; conditions: Huh7 cells (hepatocellular carcinoma cell line)
outcome.measure: CC50

CN(CCCNc1ccnc2cc(Cl)ccc12)C(=O)c1ccc(C(C)(C)C)cc1 = 3.89 µM

INPUT: Recorded CC50 for "CCN(CC)S(=O)(=O)c1ccc(C(=O)c2c(C)c(C(=O)C(F)(F)F)c3ccccn23)cc1" , please?
OUTPUT: > 100 µM

INPUT: Now the molecule "O=C(Nc1ccc2oc(-c3ccccc3F)nc2c1)c1ccc([N+](=O)[O-])o1"
OUTPUT: > 100 µM

INPUT: Now the molecule "CC(C)C(=O)NCCCCNc1ccnc2cc(Cl)ccc12"
OUTPUT: > 10 µM

INPUT: Now the molecule CC(C)=CCCC1=CCC(CNCCCN(C)C)C(C)C1 (stereo not drawn)
OUTPUT: 18.9 µM

INPUT: Now the molecule CCC(C(=O)Oc1ccccc1-c1nc2cc(C)ccn2c1NC(C)(C)CC(C)(C)C)c1ccccc1 (stereo not drawn)
OUTPUT: > 10 µM

INPUT: Now the molecule "Cc1cc(C)c2nc(NS(=O)(=O)c3cccc(C(=O)O)c3)sc2c1"
OUTPUT: > 10 µM

INPUT: Now the molecule "O=C(NNc1ccccc1F)c1c(F)cccc1Cl"
OUTPUT: > 10 µM

INPUT: Now the molecule C=CCOC(=O)C1=C(C)N=C2SCCC(=O)N2C1c1ccc(OC(=O)c2ccco2)cc1 (stereo not drawn)
OUTPUT: > 100 µM

INPUT: Now the molecule "Cc1cccc(CC(=O)N2CCC[C@@H]3CN(C(=O)CCc4cccnc4)CC[C@@H]32)c1"
OUTPUT: > 10 µM

INPUT: Now the molecule "CSC(Cl)=C(NC(C)=O)[P+](c1ccccc1)(c1ccccc1)c1ccccc1"
OUTPUT: > 100 µM

INPUT: Now the molecule "O=[N+]([O-])c1ccc(-c2cn3nc(C(F)(F)F)sc3n2)cc1"
OUTPUT: > 10 µM

INPUT: Now the molecule Cc1cccn2c(NCc3ccccc3)c(-c3ccccc3OC(=O)C(C)Cl)nc12 (stereo not drawn)
OUTPUT: > 100 µM

INPUT: Now the molecule "COc1ccc(-c2cncc3ccc(C(=O)NCc4ccncc4)nc23)cc1"
OUTPUT: > 10 µM

INPUT: Now the molecule CCCCCCN(C(=O)c1cccc(C(F)(F)F)c1)C(CC)c1nc2ccccc2c(=O)n1-c1ccccc1OC (stereo not drawn)
OUTPUT: > 10 µM

INPUT: Now the molecule "CC1=CC(=C(C#N)c2nc3ccccc3s2)C=C(C)N1c1ccc2c(c1)OCO2"
OUTPUT: > 100 µM

INPUT: Now the molecule "O=C(Nc1ccc(-c2nc3ccccc3[nH]2)cc1)c1ccc(-c2ccc(Cl)cc2)o1"
OUTPUT: 16.6 µM

INPUT: Now the molecule "CCOC(=O)c1cnc2ccc(Cl)cc2c1NCCCN(C)C"
OUTPUT: 48.2 µM
